Molecular target: human TRβ ligand-binding domain (Homo sapiens, UniProt P10828)
Sequence (P10828 217-461 limits assumed): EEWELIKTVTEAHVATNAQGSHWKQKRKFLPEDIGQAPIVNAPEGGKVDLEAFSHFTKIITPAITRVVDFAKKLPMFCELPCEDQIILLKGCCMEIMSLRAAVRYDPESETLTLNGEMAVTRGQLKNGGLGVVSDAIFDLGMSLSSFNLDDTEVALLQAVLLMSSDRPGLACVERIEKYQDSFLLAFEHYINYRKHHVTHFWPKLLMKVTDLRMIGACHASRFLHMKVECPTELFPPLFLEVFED
Assay: TRb-coa LanthaScreen TR-FRET coactivator (SRC-2 peptide) recruitment, agonist (TOX21_TRB_COA_Agonist_Followup_ratio, aeid 2244)
Format: biochemical
Set-up: host or cells: GeneBLAzer UAS-bla HEK 293T
Conditions: hit call from tcpl; agonist
REPORTED_ENDPOINT: TRb-coa hitc
Give the figure by itself; no unit, no explanation.

Below, 2 compounds whose answers are already recorded.
# COMPOUND, TESTED_SYSTEM, NUMERIC_VALUE
data = [
    ("O=C(O)CCNC(=O)c1ccccc1 [Betamipron, reference compound]", "human TRβ ligand-binding domain (Homo sapiens, UniProt P10828)", 1),
    ("Cc1ccc(O)cc1 [Cresol]", "human TRβ ligand-binding domain (Homo sapiens, UniProt P10828)", 0),
]

Task: Which TRb-coa hitc value belongs to O=c1[nH]cnc2c1ncn2[C@H]1CC[C@@H](CO)O1 [2',3'-Dideoxyinosine] ?
Output: 0

Task: Requested field: TRb-coa hitc. Item: C[C@]12CC[C@H]3C(=CCc4cc(O)ccc43)[C@@H]1CCC2=O [Equilin, reference compound]
Output: 0

Task: Which TRb-coa hitc value belongs to C=C(NC(=O)C(=C)NC(=O)c1csc(C2=N[C@@H]3c4csc(n4)[C@H]4NC(=O)c5csc(n5)[C@H]([C@](C)(O)[C@@H](C)O)NC(=O)[C@H]5CSC(=N5)/C(=C/C)NC(=O)[C@H]([C@@H](C)O)NC(=O)c5csc(n5)[C@]3(CC2)NC(=O)[C@H](C)NC(=O)C(=C)NC(=O)[C@H](C)NC(=O)[C@H]([C@@H](C)CC)N[C@@H]2C=Cc3c([C@H](C)O)cc(nc3[C@H]2O)C(=O)O[C@@H]4C)n1)C(N)=O [Thiostrepton] ?
Output: 0

---

Test system: GH3-TRE-Luc cell line
Details: read-out: AC50 (uM) modified / 1000; Tox21_110001=Tox21_110200; viability, 1 nM T3 present, 24 h
REPORTED_ENDPOINT: CC50
Form field: result (number plus unit)

Task: CC50 lookup needed for CNCCCC12CCC(c3ccccc31)c1ccccc12 , thanks.
Output: 11.7 µM

---

Experiment: in vitro
Conditions: rat, gh3-tre-luc cells, AC50 (uM) modified / 1000, Tox21_110001=Tox21_400081; viability, 1 nM T3 present, 24 h
REPORTED_ENDPOINT: CC50 at 24 h

Task: Look up CC50 at 24 h for this molecule: CCOP(=O)(O)N(c1ccc(SC)c(C)c1)C(C)C
Output: > 90 µM

---

Assay: in vitro
Conditions: rat, gh3-tre-luc cells, AC50 (uM) modified / 1000, Tox21_110001=Tox21_111700; viability, 1 nM T3 present, 24 h
REPORTED_ENDPOINT: CC50 at 24 h
Returns: string containing the number followed by the unit.

Task: # get_value(readout='CC50 at 24 h', item= O=C(Nc1ccc(Br)cc1)c1cc(Br)cc(Br)c1O [Tribromsalan] )
Output: 14.2 µM

---

Tested on: GH3-TRE-Luc cell line
Conditions: read-out: AC50 (uM) modified / 1000; Tox21_110001=Tox21_302900; viability, 1 nM T3 present, 24 h
REPORTED_ENDPOINT: CC50

Task: Tell me reported CC50 for c1ccc(Nc2ccc3ccccc3c2)cc1 [N-Phenyl-2-naphthylamine] , tested with GH3-TRE-Luc cell line.
Output: > 90 µM

FYI, the data here is from paper PMC6792352.
